Tested on: CAKI-1 renal
Experiment: NCI-60 one-dose screen, 48 h
Conditions: 10 µM
This is part of a sample that, as a whole, favours compounds with a hit. Of some 83,000 tested, about 20% had one in any assay. Calls of active or inactive are those of the source. Rule for the calls: active = growth percent below 10; inactive = the rest.
Valid outcomes are listed here; reply with one: true (active), false (inactive)

These solved cases illustrate the format of a correct answer.
compound | category
Cc1cc(C)c(CC(=O)O)c(C)c1 | false
Oc1ccc(O)cc1 | false
N#CCCc1ccc(O)cc1 | false
CC1CCCC(CC(N)=O)CC1 (configuration not stated) | false
O=C1OC[C@H]2[C@H](c3ccc(O)c(O)c3)c3cc(O)c(O)cc3C[C@H]12 | false
CC(=O)Nc1cccc(NC(C)=O)n1 | false
CC(=O)N(C)c1ccc([N+](=O)[O-])cc1 | false
Cn1cnc2nc(Cl)nc(Cl)c21 | true
CCOC(=O)c1cc2cccc(OC)c2oc1=O | false
COC(=O)/C=C\C(=O)OC | false

Problem: Assay outcome for COC(=O)c1[nH]c(=O)c(C#N)c(C(=O)OC)c1C(=O)c1ccccc1 : what was it?
Result: false

Problem: How was O=S(=O)(Cc1ccccc1)c1ccccc1 classified in this test?
Result: false

Problem: What classification did CC(=O)Cc1ccc(-c2ccccc2)cc1 end up with in this test?
Result: false

Problem: What was the test verdict on CC1=CC(C)(C)NC(=S)N1c1ccc(S(=O)(=O)O)c2cccc(S(=O)(=O)O)c12 ?
Result: false

Problem: Write down the call the test reported for this compound. Item: Cc1c(O)cnc2nn(-c3ccccc3)c(=N)n12
Result: false

Problem: Recorded test outcome, item CC(C)=NNc1ccc([N+](=O)[O-])cc1[N+](=O)[O-]
Result: false

Problem: Look up the recorded call for CC(=O)OCCO in this test.
Result: false

Problem: # lookup: test call for COc1ccccc1C1OC2=Nc3cc(C)c(C)cc3NC2C1=O (configuration not stated)
Result: false

Problem: Just curious, what result did O=c1[nH]n(-c2ccccc2)c(=O)cc1Cl get here?
Result: false

###

Tested on: PC-3 prostate
Test: NCI-60 one-dose screen, 48 h (100 = growth as untreated, 0 = no growth, -100 = all killed)
Settings: 10 µM
This is part of a sample that, as a whole, favours compounds with a hit. Of some 83,000 tested, about 20% had one in any assay.
endpoint-name: growth (%)
Give a bare numeral; the unit % is implied.

molecule | assayed-target | growth / %
Nc1ccccc1C(=O)Nc1ccc(Cl)cc1Cl | PC-3 prostate | 78.8
CC(CN1CCCCC1)NC(=O)c1scnc1-c1ccccc1 (configuration not stated) | PC-3 prostate | 92.9
O=C1OC[C@H]2[C@H](c3ccc(O)c(O)c3)c3cc(O)c(O)cc3C[C@H]12 | PC-3 prostate | 46.7
N/N=C(/Cc1ccccc1)NNC(N)=S | PC-3 prostate | 88.3

Data point: CCS(=O)(=O)CCCl ; growth = 99.5

Per the records, this molecule ( O=C(O)COCC(=O)O ) has growth equal to 97

// sample CNC(=S)NC(C)(C)C , its growth was 89.9

###

Recorded growth values for a group of compounds are listed next.
System: SF-268 CNS
Test: NCI-60 one-dose screen, 48 h (100 = growth as untreated, 0 = no growth, -100 = all killed)
Conditions: 10 µM
About 83,000 compounds went through this panel and 20% of them were active in at least one assay; those are over-represented in the sample as a whole.
Write down the numeric answer in % and omit the unit.

Known results for compounds:
compound | assayed-target | growth [%]
CC1CCC(C(=O)O)N1 (configuration not stated) | SF-268 CNS | 97.5
C=CCNc1ccccc1 | SF-268 CNS | 104
CCOC(=O)c1cc(/C=C/c2cccc(Cl)c2)on1 | SF-268 CNS | 93.7
C[C@]12CC[C@@H]3c4ccc(OCC(=O)O)cc4CC[C@H]3[C@@H]1CCC2=O | SF-268 CNS | 91
CCC/C=C(/C(C)=O)C(=O)OCC | SF-268 CNS | 84.5
CC(=O)c1ccc2c(ccc3ccccc32)c1 | SF-268 CNS | 104
FC(F)(F)c1ccc2c(c1)N(CCCN1CCN(C3CC3)CC1)c1ccccc1S2 | SF-268 CNS | -4.95
S=C(Nc1ccccc1)N1CCCCC1 | SF-268 CNS | 107

Given item CC(C)=NNC(N)=S , the value recorded as its growth is 90.7

// field: growth; key: C/C=C/CC(C)C(O)C1C(=O)NC(CC)C(=O)N(C)CC(=O)N(C)C(CC(C)C)C(=O)NC(C(C)C)C(=O)N(C)C(CC(C)C)C(=O)NC(C)C(=O)NC(C)C(=O)N(C)C(CC(C)C)C(=O)N(C)C(CC(C)C)C(=O)N(C)C(C(C)C)C(=O)N1C (configuration not stated) ; value = 38.3

The reported growth of the compound COCCOCCCl was 101

The origin of these recorded values is PubChem BioAssay (NCI).
